# Target: novel, non-AT1, non-AT2 angiotensin binding site (neurolysin) (Rattus norvegicus, UniProt P42676)
# Sequence (P42676 38-704): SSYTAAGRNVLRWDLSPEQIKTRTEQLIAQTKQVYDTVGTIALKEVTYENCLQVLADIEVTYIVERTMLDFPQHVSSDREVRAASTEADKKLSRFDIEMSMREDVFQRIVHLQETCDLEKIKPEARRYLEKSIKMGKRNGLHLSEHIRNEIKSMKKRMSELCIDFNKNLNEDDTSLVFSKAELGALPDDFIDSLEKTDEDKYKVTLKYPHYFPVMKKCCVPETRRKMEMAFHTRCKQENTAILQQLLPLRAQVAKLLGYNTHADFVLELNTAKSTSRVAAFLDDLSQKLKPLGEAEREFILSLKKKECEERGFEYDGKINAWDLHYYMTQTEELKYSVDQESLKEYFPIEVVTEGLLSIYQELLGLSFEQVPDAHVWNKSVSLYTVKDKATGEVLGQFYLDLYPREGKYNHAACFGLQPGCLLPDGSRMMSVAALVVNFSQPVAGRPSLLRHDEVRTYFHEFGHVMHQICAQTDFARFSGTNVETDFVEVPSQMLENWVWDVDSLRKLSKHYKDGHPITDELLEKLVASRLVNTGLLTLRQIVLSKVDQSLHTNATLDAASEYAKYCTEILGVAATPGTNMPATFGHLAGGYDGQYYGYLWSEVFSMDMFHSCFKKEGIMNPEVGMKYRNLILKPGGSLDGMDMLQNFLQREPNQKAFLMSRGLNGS
# Assay Notes: Inhibition or enhancement of PCMB-unmasked 125I-SI Ang II binding in membranes
# Assay Setup: brain; 100 μM PCMB
IC50 for inhibition of 125I-SI Ang II binding for assorted compounds
Measured Parameter: IC50 for inhibition of 125I-SI Ang II binding

1) [Cl][Hg][Cl] [HgCl2, mercuric chloride]: 14.3 µM
2) O=[N+]([O-])[O-].[Ag+] [AgNO3, silver nitrate]: 1.77 µM
3) COC([CH2][Hg+])CNC(=O)c1ccccc1OCC(=O)O.[OH-] (stereo not shown) [mersalyl acid]: 1.10 µM
4) NCCS [cysteamine]: 28.1 µM
